Test system: rats fed on a high-cholesterol diet
assayNotes: Serum cholesterol lowering activity in rats fed on a high-cholesterol diet
Assay type: in vivo, Male Sprague-Dawley rats
experimentalContext: Rattus norvegicus, 96 h; total serum cholesterol; 30 mg per kg of body weight per day for 4 days, suspended in 0.5% carboxymethyl cellulose; blood 24 hours after last administration; read-out: Reduction rate (%)
Answer Not met if inhibition in vivo at 30 mg/kg is under 60%, and Met if it is 60% or more.

Request: Reported inhibition in vivo at 30 mg/kg at or above 60%? Cc1ccccc1-c1nc(-c2ccccc2)oc1NC(=O)Nc1c(C(C)C)cccc1C(C)C
Response: Met

Request: Reported inhibition in vivo at 30 mg/kg at or above 60%? CC(C)c1cccc(C(C)C)c1NC(=O)Nc1sc(-c2ccccc2)nc1-c1ccccc1Cl
Response: Not met

Request: Reported inhibition in vivo at 30 mg/kg at or above 60%? Cc1nc(NC(=O)Nc2c(C(C)C)cccc2C(C)C)c(-c2ccccc2Cl)s1
Response: Not met

Request: Reported inhibition in vivo at 30 mg/kg at or above 60%? CCc1nc(-c2ccccc2Cl)c(NC(=O)Nc2c(C(C)C)cccc2C(C)C)s1
Response: Not met

Request: Reported inhibition in vivo at 30 mg/kg at or above 60%? CC(C)c1cccc(C(C)C)c1NC(=O)Nc1nc(-c2ccccc2)sc1-c1ccccc1Cl
Response: Met

Request: Reported inhibition in vivo at 30 mg/kg at or above 60%? CSc1ccccc1-c1sc(-c2ccccc2)nc1NC(=O)Nc1c(C(C)C)cccc1C(C)C
Response: Met

meta.source: patent EP0761658A1
